Reported PBM binding z-score values are given for each entry in this list.
# Tested on: LXRb:RXRa (NR concentration 270 nM, RXRa partner concentration 90 nM)
# ASSAY_PROCEDURE: PBM binding z-score (relative to random genomic background probes); higher = stronger binding; sequences stand for … in GC…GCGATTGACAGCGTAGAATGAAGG
A bare number is all that is needed in reply.

Some sequences with recorded PBM binding z-score:
BIOPOLYMER_SEQUENCE: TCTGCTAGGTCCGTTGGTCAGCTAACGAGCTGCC
PBM binding z-score: -0.828
--
BIOPOLYMER_SEQUENCE: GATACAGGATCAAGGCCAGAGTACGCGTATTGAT
PBM binding z-score: -0.535
--
BIOPOLYMER_SEQUENCE: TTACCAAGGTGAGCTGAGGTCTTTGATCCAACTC
PBM binding z-score: -0.341
--
BIOPOLYMER_SEQUENCE: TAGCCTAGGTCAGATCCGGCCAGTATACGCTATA
PBM binding z-score: 1.05
--
BIOPOLYMER_SEQUENCE: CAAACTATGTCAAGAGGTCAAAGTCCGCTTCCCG
PBM binding z-score: 4.97
--
BIOPOLYMER_SEQUENCE: ACTAGTTGGTCAGCTCAGGTCACACACAATTCGG
PBM binding z-score: 1.95

The reported PBM binding z-score value, LXRb:RXRa (NR concentration 270 nM, RXRa partner concentration 90 nM), for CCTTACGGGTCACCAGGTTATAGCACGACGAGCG reads 3.43

###

# Test system: THRa:RXRa (NR concentration 90 nM, RXRa partner concentration 90 nM)
# ASSAY_PROCEDURE: PBM binding z-score (relative to random genomic background probes); higher = stronger binding; sequences stand for … in GC…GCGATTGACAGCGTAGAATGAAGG
READOUT_TYPE: PBM binding z-score
Lab note: record the figure alone, no unit after it.

response.value for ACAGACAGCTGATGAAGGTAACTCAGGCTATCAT (field: PBM binding z-score) = 0.595

Input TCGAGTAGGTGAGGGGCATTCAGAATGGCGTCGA . Output PBM binding z-score: 0.268

Item: TCATATAGGTAAAGGTGAAAGACGAACGATATGA | PBM binding z-score: 1.04

Briefly, PBM binding z-score measured for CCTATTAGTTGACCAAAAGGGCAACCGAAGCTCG : 0.99

###

# Tested on: PXR:RXRa (NR concentration 270 nM, RXRa partner concentration 90 nM)
# ASSAY_PROCEDURE: PBM binding z-score (relative to random genomic background probes); higher = stronger binding; sequences stand for … in GC…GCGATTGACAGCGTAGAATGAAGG
READOUT_TYPE: PBM binding z-score
Simply state the number, no unit and no words.

BIOPOLYMER_SEQUENCE: ATCTCTAGGTATCCAAGTTCAGTGAATGCCGAAC
ASSAY_VALUE: 1.5
--
BIOPOLYMER_SEQUENCE: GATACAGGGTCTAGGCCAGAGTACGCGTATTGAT
ASSAY_VALUE: -0.687
--
BIOPOLYMER_SEQUENCE: GCTCGGAGGACAGGGTCAGAGCTTTGTCCGTAGA
ASSAY_VALUE: 1.22

// sequence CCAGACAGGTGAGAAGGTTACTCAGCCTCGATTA , assay PXR:RXRa (NR concentration 270 nM, RXRa partner concentration 90 nM), PBM binding z-score value: 0.441

Form field PBM binding z-score for item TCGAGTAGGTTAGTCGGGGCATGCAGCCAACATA on PXR:RXRa (NR concentration 270 nM, RXRa partner concentration 90 nM): -0.00662

Value sought: PBM binding z-score, system PXR:RXRa (NR concentration 270 nM, RXRa partner concentration 90 nM), item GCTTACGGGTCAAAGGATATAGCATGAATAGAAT . Result: 3.09

Lab note: sequence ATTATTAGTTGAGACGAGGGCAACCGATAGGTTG tested on PXR:RXRa (NR concentration 270 nM, RXRa partner concentration 90 nM); recorded PBM binding z-score was 1.72

Lab entry: PXR:RXRa (NR concentration 270 nM, RXRa partner concentration 90 nM) assay, sequence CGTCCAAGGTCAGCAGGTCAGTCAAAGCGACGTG , PBM binding z-score = 3.71

Tested on PXR:RXRa (NR concentration 270 nM, RXRa partner concentration 90 nM), the item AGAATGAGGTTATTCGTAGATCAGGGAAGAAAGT showed PBM binding z-score equal to 1.44

###

# Tested on: THRa homodimer (NR concentration 90 nM)
# ASSAY_PROCEDURE: PBM binding z-score (relative to random genomic background probes); higher = stronger binding; sequences stand for … in GC…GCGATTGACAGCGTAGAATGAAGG
PBM binding z-score below 0.3 gives false (0); PBM binding z-score at or above it gives true (1).

Use the examples below as a reference point.
BIOPOLYMER_SEQUENCE: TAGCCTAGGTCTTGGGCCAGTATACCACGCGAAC
LABEL_CLASS: false (0)
--
BIOPOLYMER_SEQUENCE: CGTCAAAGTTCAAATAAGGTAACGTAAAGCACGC
LABEL_CLASS: true (1)
--
BIOPOLYMER_SEQUENCE: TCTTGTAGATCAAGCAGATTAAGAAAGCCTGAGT
LABEL_CLASS: false (0)
--
BIOPOLYMER_SEQUENCE: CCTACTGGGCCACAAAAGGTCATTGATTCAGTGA
LABEL_CLASS: true (1)
--
BIOPOLYMER_SEQUENCE: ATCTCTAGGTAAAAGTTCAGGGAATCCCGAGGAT
LABEL_CLASS: true (1)
--
BIOPOLYMER_SEQUENCE: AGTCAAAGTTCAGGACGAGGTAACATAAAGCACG
LABEL_CLASS: true (1)

Problem: Determine whether this sequence has PBM binding z-score no lower than 0.3: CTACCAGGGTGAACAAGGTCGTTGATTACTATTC
Solution: true (1)

Problem: Evaluate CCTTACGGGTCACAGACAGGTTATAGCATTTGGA : PBM binding z-score at minimum 0.3?
Solution: true (1)

###

# Test system: THRa:RXRa (NR concentration 90 nM, RXRa partner concentration 90 nM)
# ASSAY_PROCEDURE: PBM binding z-score (relative to random genomic background probes); higher = stronger binding; sequences stand for … in GC…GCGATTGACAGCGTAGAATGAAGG
READOUT_TYPE: PBM binding z-score
Just the number, please.

BIOPOLYMER_SEQUENCE: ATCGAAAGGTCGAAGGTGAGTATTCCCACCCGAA
PBM binding z-score: 2.13
--
BIOPOLYMER_SEQUENCE: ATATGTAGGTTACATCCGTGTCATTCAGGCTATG
PBM binding z-score: 1.4
--
BIOPOLYMER_SEQUENCE: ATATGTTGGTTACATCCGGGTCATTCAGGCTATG
PBM binding z-score: 3.16

response.value for GGAACGAGGGCATTCGAATTGATAGCATGGCGAT (field: PBM binding z-score) = 0.827

Record summary for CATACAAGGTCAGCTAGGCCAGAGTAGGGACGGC : reported PBM binding z-score = 3.54

Per the record, CAAACTAGGTCACAGAGCTCAAAGTCCGTGCGTA has PBM binding z-score of 3.25

The sequence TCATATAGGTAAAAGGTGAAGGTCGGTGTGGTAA showed PBM binding z-score equal to 1.94

For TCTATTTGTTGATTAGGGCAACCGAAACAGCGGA the sequence record lists PBM binding z-score as 0.89

Briefly, PBM binding z-score measured for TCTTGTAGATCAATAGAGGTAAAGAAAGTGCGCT : 1.9

Please fill in: PBM binding z-score reported for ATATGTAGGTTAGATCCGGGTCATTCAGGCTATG = 3.63

Measured PBM binding z-score of CAAACTAGGTCACCGGAAGGGCAAAGTCCGCATG : 3.42

sequence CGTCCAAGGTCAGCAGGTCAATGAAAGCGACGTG , PBM binding z-score observed: 4.03

Short answer for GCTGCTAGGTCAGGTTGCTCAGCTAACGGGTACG : PBM binding z-score was 1.49

Entry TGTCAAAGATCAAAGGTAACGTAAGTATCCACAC ; PBM binding z-score = 1.54

Measured PBM binding z-score, GCAGACAGGTGAAACGCAGGTATCTCAGGGTGGC : 0.272

PBM binding z-score measured on TCTGCTAGGTCAGTCGGTCAGCTAACGAGCTGCC = 1.17

Sample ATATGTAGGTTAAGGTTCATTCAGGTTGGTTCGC ; PBM binding z-score observed: 2.49

// PBM binding z-score lookup, sequence = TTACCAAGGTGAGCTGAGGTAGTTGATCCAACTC , result: 3.02

Short answer for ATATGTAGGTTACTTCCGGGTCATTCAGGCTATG : PBM binding z-score was 3.91

Input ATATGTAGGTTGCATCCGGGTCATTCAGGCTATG . Output PBM binding z-score: 3.03
